# System: N2a cells
# Assay Text: Cell viability assay (MTT) in uninfected N2a cells
# Type: cell-based, mouse
# Conditions Used: 500 nM, seven days, N2a, MTT, versus untreated control
The following molecules are shown together with reported % Cell Viability (±SEM) 500 nM values.

Molecule | Measurement Target | % Cell Viability (±SEM) 500 nM
COc1ccc2nc3cc(Cl)ccc3c(NCCCCN(CCCNc3c4ccc(Cl)cc4nc4ccc(OC)cc34)C(=O)CNC(=O)[C@H](C)N)c2c1 [Compound 18] | N2a cells | 0(±1) %
COc1ccc2nc3cc(Cl)ccc3c(NCCCCN(CCCNc3c4ccc(Cl)cc4nc4ccc(OC)cc34)C(=O)CNC(=O)[C@H](C)NC(=O)OC(C)(C)C)c2c1 [Compound 19] | N2a cells | 70(±12) %
COc1ccc2nc3cc(Cl)ccc3c(NCCCNCCCNCCCNc3c4ccc(Cl)cc4nc4ccc(OC)cc34)c2c1.Cl [Compound 9] | N2a cells | 10(±2) %
COc1ccc2nc3cc(Cl)ccc3c(NCCCN(C)CCCNc3c4ccc(Cl)cc4nc4ccc(OC)cc34)c2c1 [Compound 14] | N2a cells | 1(±1) %
CCCN(CCCCNc1c2ccc(Cl)cc2nc2ccc(OC)cc12)CCCNc1c2ccc(Cl)cc2nc2ccc(OC)cc12 [Compound 15] | N2a cells | 0(±1) %
COc1ccc2nc3cc(Cl)ccc3c(NCCCCNCCCNc3c4ccc(Cl)cc4nc4ccc(OC)nc34)c2n1.Cl [Compound 20] | N2a cells | 88(±8) %
COc1ccc2nc3cc(Cl)ccc3c(NCCCCCCCCCCNc3c4ccc(Cl)cc4nc4ccc(OC)cc34)c2c1 [Compound 4] | N2a cells | 90(±17) %
COc1ccc2nc3cc(Cl)ccc3c(NCCNCCCNCCNc3c4ccc(Cl)cc4nc4ccc(OC)cc34)c2c1 [Compound 8] | N2a cells | 1(±1) %
COc1ccc2nc3cc(Cl)ccc3c(NCCCCCCNc3c4ccc(Cl)cc4nc4ccc(OC)cc34)c2c1 [Compound 2] | N2a cells | 82(±3) %
COc1ccc2nc3cc(Cl)ccc3c(NCCCNCCCNc3c4ccc(Cl)cc4nc4ccc(OC)cc34)c2c1 [Compound 6] | N2a cells | 1(±1) %
COc1ccc2nc3cc(Cl)ccc3c(NCCCCCCCCNc3c4ccc(Cl)cc4nc4ccc(OC)cc34)c2c1 [Compound 3] | N2a cells | 97(±6) %
COc1ccc2nc3cc(Cl)ccc3c(NCCCCN(CCCNc3c4ccc(Cl)cc4nc4ccc(OC)cc34)C(=O)C(C)NC(=O)OC(C)(C)C)c2c1 (centres unmarked) [Compound 17] | N2a cells | 84(±3) %
COc1ccc2nc3cc(Cl)ccc3c(NCCOCCOCCNc3c4ccc(Cl)cc4nc4ccc(OC)cc34)c2c1 [Compound 13] | N2a cells | 98(±11) %
COc1ccc2nc3cc(Cl)ccc3c(NCCCCNc3c4ccc(Cl)cc4nc4ccc(OC)cc34)c2c1 [Compound 1] | N2a cells | 100(±6) %

* * *

Quick reference for % Cell Viability (±SEM) 50 nM among some compounds
# Tested on: N2a cells
# Assay Text: Cell viability assay (MTT) in uninfected N2a cells
# Assay type: cell-based, mouse
# Conditions Used: 50 nM, seven days, N2a, MTT, versus untreated control
# Procedure: Uninfected N2a cells were identically seeded onto six-well plates containing MEM (3 mL, supplemented as above). […] Medium was exchanged, together with the compound, every three days. After seven days, thiazolyl blue (300 μL, MTT, 3-[4,5-dimethylthiazol-2-yl]-2,5-diphenyltetrazolium bromide, Sigma-Aldrich) in PBS (5 mgmL^−1), previously sterile filtered, was added. Cells were incubated at 37° C. for 5 h. […]
Measurement Kind: % Cell Viability (±SEM) 50 nM

Compound | Measurement Target | Measurement Kind | Observed Measurement
COc1ccc2nc3cc(Cl)ccc3c(NCCCCN(CCCNc3c4ccc(Cl)cc4nc4ccc(OC)cc34)C(=O)CNC(=O)[C@H](C)NC(=O)OC(C)(C)C)c2c1 [Compound 19] | N2a cells | % Cell Viability (±SEM) 50 nM | 88(±18) %
COc1ccc2nc3cc(Cl)ccc3c(NCCCCCCCCCCNc3c4ccc(Cl)cc4nc4ccc(OC)cc34)c2c1 [Compound 4] | N2a cells | % Cell Viability (±SEM) 50 nM | 99(±21) %
COc1ccc2nc3cc(Cl)ccc3c(NCCCN3CCN(CCCNc4c5ccc(Cl)cc5nc5ccc(OC)cc45)CC3)c2c1 [Compound 11] | N2a cells | % Cell Viability (±SEM) 50 nM | 94(±11) %
COc1ccc2nc3cc(Cl)ccc3c(NCCCN(C)CCCNc3c4ccc(Cl)cc4nc4ccc(OC)cc34)c2c1 [Compound 14] | N2a cells | % Cell Viability (±SEM) 50 nM | 73(±2) %

* * *

# Test system: N2a cells
# Assay Text: Cell viability assay (MTT) in uninfected N2a cells
# Type: cell-based, mouse
# Conditions Used: 200 nM, seven days, N2a, MTT, versus untreated control
# Method: Uninfected N2a cells were identically seeded onto six-well plates containing MEM (3 mL, supplemented as above). […] Medium was exchanged, together with the compound, every three days. After seven days, thiazolyl blue (300 μL, MTT, 3-[4,5-dimethylthiazol-2-yl]-2,5-diphenyltetrazolium bromide, Sigma-Aldrich) in PBS (5 mgmL^−1), previously sterile filtered, was added. Cells were incubated at 37° C. for 5 h. […]

Compound | % Cell Viability (±SEM) 200 nM
COc1ccc2nc3cc(Cl)ccc3c(NCCCN3CCN(CCCNc4c5ccc(Cl)cc5nc5ccc(OC)cc45)CC3)c2c1 | 89(±9) %
COc1ccc2nc3cc(Cl)ccc3c(NCCCN(C)CCCNc3c4ccc(Cl)cc4nc4ccc(OC)cc34)c2c1 | 59(±8) %
COc1ccc2nc3cc(Cl)ccc3c(NCCCCN(CCCNc3c4ccc(Cl)cc4nc4ccc(OC)cc34)C(=O)C(C)NC(=O)OC(C)(C)C)c2c1 (centres unmarked) | 85(±6) %
COc1ccc2nc3cc(Cl)ccc3c(NCCCCCCCCCCNc3c4ccc(Cl)cc4nc4ccc(OC)cc34)c2c1 | 95(±21) %
COc1ccc2nc3cc(Cl)ccc3c(NCCOCCOCCNc3c4ccc(Cl)cc4nc4ccc(OC)cc34)c2c1 | 90(±9) %
COc1ccc2nc3cc(Cl)ccc3c(NCCCCNc3c4ccc(Cl)cc4nc4ccc(OC)cc34)c2c1 | 100(±9) %
COc1ccc2nc3cc(Cl)ccc3c(NCCCCCCCCNc3c4ccc(Cl)cc4nc4ccc(OC)cc34)c2c1 | 100(±2) %
COc1ccc2nc3cc(Cl)ccc3c(NCCCCNCCCNc3c4ccc(Cl)cc4nc4ccc(OC)nc34)c2n1.Cl | 100(±9) %
COc1ccc2nc3cc(Cl)ccc3c(NCCCCCCCCNc3c4ccc(Cl)cc4nc4ccc(OC)nc34)c2n1 | 100(±6) %
COc1ccc2nc3cc(Cl)ccc3c(NCCCCN(CCCNc3c4ccc(Cl)cc4nc4ccc(OC)cc34)C(=O)[C@H](C)N)c2c1 | 59(±13) %
COc1ccc2nc3cc(Cl)ccc3c(NCCCCCCNc3c4ccc(Cl)cc4nc4ccc(OC)cc34)c2c1 | 96(±3) %
COc1ccc2nc3cc(Cl)ccc3c(NCCNCCNc3c4ccc(Cl)cc4nc4ccc(OC)cc34)c2c1 | 100(±9) %
COc1ccc2nc3cc(Cl)ccc3c(NCCNCCCNCCNc3c4ccc(Cl)cc4nc4ccc(OC)cc34)c2c1 | 23(±10) %
COc1ccc2nc3cc(Cl)ccc3c(NCCCCN(CCCNc3c4ccc(Cl)cc4nc4ccc(OC)cc34)C(=O)CNC(=O)[C@H](C)N)c2c1 | 93(±1) %

* * *

Entries and their % Cell Viability (±SEM) 50 nM
# System: N2a cells
# Assay Text: Cell viability assay (MTT) in uninfected N2a cells
# Format: cell-based, mouse
# Conditions Used: 50 nM, seven days, N2a, MTT, versus untreated control
Measurement Kind: % Cell Viability (±SEM) 50 nM

Molecule | Observed Measurement
COc1ccc2nc3cc(Cl)ccc3c(NCCCCCCCCNc3c4ccc(Cl)cc4nc4ccc(OC)cc34)c2c1 | 100(±4) %
COc1ccc2nc3cc(Cl)ccc3c(NCCOCCOCCNc3c4ccc(Cl)cc4nc4ccc(OC)cc34)c2c1 | 97(±8) %
COc1ccc2nc3cc(Cl)ccc3c(NCCCCN(CCCNc3c4ccc(Cl)cc4nc4ccc(OC)cc34)C(=O)CNC(=O)[C@H](C)N)c2c1 | 96(±4) %
COc1ccc2nc3cc(Cl)ccc3c(NCCCCCCNc3c4ccc(Cl)cc4nc4ccc(OC)cc34)c2c1 | 90(±3) %
COc1ccc2nc3cc(Cl)ccc3c(NCCCCNc3c4ccc(Cl)cc4nc4ccc(OC)cc34)c2c1 | 100(±9) %
COc1ccc2nc3cc(Cl)ccc3c(NCCCCN(CCCNc3c4ccc(Cl)cc4nc4ccc(OC)cc34)C(=O)C(C)NC(=O)OC(C)(C)C)c2c1 (stereo not shown) | 98(±12) %
COc1ccc2nc3cc(Cl)ccc3c(NCCCCN(CCCNc3c4ccc(Cl)cc4nc4ccc(OC)cc34)C(=O)[C@H](C)N)c2c1 | 100(±22) %
